Test system: BRAF;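 further: KINOMEscan scanMAX binding as percent activity remaining versus control; lower means stronger binding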
CONDITION LABEL: Compound Concentration (nM):1000
TEST READOUT: Percent Control (%)
Kindly provide the numeric value in % only, without the unit symbol.

COMPOUND	MEASUREMENT TARGET	Percent Control, %
NS(=O)(=O)c1ccc(N/N=C2\C(=O)Nc3ccc(C(=O)NCc4ccncc4)cc32)cc1 [GW300657X]	BRAF	97
COc1cccc(-c2c[nH]c3c(N/N=C/c4ccncc4)ncnc23)c1 [GW814408X]	BRAF	29
CCn1c(-c2nonc2N)nc2c(C#CC(C)(C)O)nc(OCCNC)cc21.Cl [GSK949675]	BRAF	100

For NS(=O)(=O)c1ccc(Nc2ncc(-c3ccccc3)o2)cc1 [GW572399X] , what is its reported Percent Control?
95

For COc1cccc(-n2ncc3c(N/N=C/c4ccncc4)ncnc32)c1 [GW784752X] , what is its reported Percent Control?
6.5

For COc1ccc2[nH]c3c4[nH]c5ccc(OC)cc5c4c4c(c3c2c1)C(=O)NC4=O [GW296115X] , what is its reported Percent Control?
86

Origin of values: paper PMC7826789
